Test system: PC-3
Test: Cytotoxicity against human PC3 cells after 72 hrs by MTT assay
Type: functional, cell-based
Conditions: PC-3, 72 h
Peptide text beside a SMILES is read from it. * marks the point of attachment. NH(4-amidinobenzyl) = N=C(N)c1ccc(CN*)cc1; X1 = N=C(N)NC/C=C/CN*
ENDPOINT NAME: IC50 (µM)
Reply numerically in µM, unit not repeated.

# count of solved cases: 2
[
  {
    "COMPOUND": "CC(=O)N[C@@H](CC(C)C)C(=O)N[C@@H](CC(C)C)C(=O)N[C@@H](CC(C)C)C(=O)N[C@@H](CC(C)C)C(=O)N[C@@H](CCCNC(=N)N)C(=O)N[C@H](C(=O)N[C@@H](CCCCN)C(=O)NCc1ccc(C(=N)N)cc1)C(C)C (Ac-LLLLRVK-{NH(4-amidinobenzyl)})",
    "TARGET OR TEST SYSTEM": "PC-3",
    "RESULT": 150
  },
  {
    "COMPOUND": "CC(=O)N[C@@H](CC(C)C)C(=O)N[C@@H](CC(C)C)C(=O)N[C@@H](CC(C)C)C(=O)N[C@@H](CC(C)C)C(=O)N[C@@H](CCCNC(=N)N)C(=O)N[C@H](C(=O)N[C@@H](CCCCN)C(=O)NC/C=C/CNC(=N)N)C(C)C (Ac-LLLLRVK-X1)",
    "TARGET OR TEST SYSTEM": "PC-3",
    "RESULT": 200
  }
]

Value of measured IC50 for the entry CC(=O)N[C@H](CC(C)C)C(=O)N[C@@H](CC(C)C)C(=O)N[C@@H](CC(C)C)C(=O)N[C@@H](CC(C)C)C(=O)N[C@@H](CCCN=C(N)N)C(=O)N[C@H](C(=O)N[C@@H](CCCCN)C(=O)N[C@@H](CCCN=C(N)N)C(N)=O)C(C)C : 190

Value of measured IC50 for the entry CCCC[C@@H](NC(C)=O)C(=O)N[C@@H](CC(C)C)C(=O)N[C@@H](CC(C)C)C(=O)N[C@@H](CC(C)C)C(=O)N[C@@H](CCCNC(=N)N)C(=O)N[C@H](C(=O)N[C@@H](CCCCN)C(=O)N[C@@H](CCCNC(=N)N)C(N)=O)C(C)C : 150

* * *

Molecular target: Furin (Homo sapiens, UniProt P09958)
Sequence (P09958 whole entry): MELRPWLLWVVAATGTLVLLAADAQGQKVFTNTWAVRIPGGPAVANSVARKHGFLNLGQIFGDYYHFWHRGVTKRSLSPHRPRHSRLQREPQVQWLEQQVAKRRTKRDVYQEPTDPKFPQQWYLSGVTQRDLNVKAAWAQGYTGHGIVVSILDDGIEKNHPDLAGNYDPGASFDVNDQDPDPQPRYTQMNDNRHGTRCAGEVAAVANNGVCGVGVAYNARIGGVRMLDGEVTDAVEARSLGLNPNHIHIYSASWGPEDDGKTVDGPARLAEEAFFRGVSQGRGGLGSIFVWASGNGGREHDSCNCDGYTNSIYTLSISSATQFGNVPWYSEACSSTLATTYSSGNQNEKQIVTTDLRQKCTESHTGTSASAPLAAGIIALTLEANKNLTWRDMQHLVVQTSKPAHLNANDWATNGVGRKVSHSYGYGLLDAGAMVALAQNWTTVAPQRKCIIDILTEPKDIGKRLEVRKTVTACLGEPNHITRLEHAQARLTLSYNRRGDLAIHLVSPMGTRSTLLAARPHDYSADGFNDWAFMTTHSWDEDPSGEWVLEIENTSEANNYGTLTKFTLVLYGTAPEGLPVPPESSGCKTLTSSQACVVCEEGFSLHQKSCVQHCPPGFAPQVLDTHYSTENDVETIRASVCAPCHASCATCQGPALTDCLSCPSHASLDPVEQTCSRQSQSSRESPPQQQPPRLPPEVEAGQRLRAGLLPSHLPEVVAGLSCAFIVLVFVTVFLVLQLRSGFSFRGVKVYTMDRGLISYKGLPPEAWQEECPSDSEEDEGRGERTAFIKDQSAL
Assay: Inhibition of human recombinant furin expressed in drosophila schneider 2 cells using pyroGlu-Arg-Thr-Lys-Arg-AMC as substrate after 1 hr
pKi: −log10 of the molar value. Square brackets hold non-standard residues; d marks the D form. Peptide text beside a SMILES is read from it. * marks the point of attachment. NH(4-amidinobenzyl) = N=C(N)c1ccc(CN*)cc1; Nle = CCCC[C@H](N)C(=O)O; X1 = N=C(N)NC/C=C/CN*
Rule: Met for pKi not less than 6, Not met for anything less.

Below are worked cases with known answers.
[
  {
    "COMPOUND": "CCCC[C@H](NC(=O)[C@H](CC(C)C)NC(=O)[C@H](CC(C)C)NC(C)=O)C(=O)N[C@@H](CC(C)C)C(=O)N[C@@H](CCCNC(=N)N)C(=O)N[C@H](C(=O)N[C@@H](CCCCN)C(=O)N[C@@H](CCCNC(=N)N)C(N)=O)C(C)C (Ac-LL[Nle]LRVKR-NH2)",
    "CAT": "Not met"
  },
  {
    "COMPOUND": "CC(=O)N[C@@H](CC(C)C)C(=O)N[C@@H](CC(C)C)C(=O)N[C@@H](CC(C)C)C(=O)N[C@@H](CC(C)C)C(=O)N[C@@H](CCCNC(=N)N)C(=O)N[C@H](C(=O)N[C@@H](CCCCN)C(=O)NC/C=C/CNC(=N)N)C(C)C (Ac-LLLLRVK-X1)",
    "CAT": "Met"
  },
  {
    "COMPOUND": "CCCC[C@H](NC(=O)[C@H](CC(C)C)NC(=O)[C@H](CC(C)C)NC(=O)[C@H](CC(C)C)NC(C)=O)C(=O)N[C@@H](CCCN=C(N)N)C(=O)N[C@H](C(=O)N[C@@H](CCCCN)C(=O)N[C@@H](CCCN=C(N)N)C(N)=O)C(C)C (Ac-LLL[Nle]RVKR-NH2)",
    "CAT": "Met"
  }
]

Ask | I'd appreciate it if you could say whether CCCC[C@H](NC(C)=O)C(=O)N[C@@H](CC(C)C)C(=O)N[C@@H](CC(C)C)C(=O)N[C@@H](CC(C)C)C(=O)N[C@@H](CCCNC(=N)N)C(=O)N[C@H](C(=O)N[C@@H](CCCCN)C(=O)N[C@@H](CCCNC(=N)N)C(N)=O)C(C)C has pKi at least equal to 6.
Reply | Met

Ask | I'd appreciate it if you could say whether CCCC[C@H](NC(=O)[C@H](CC(C)C)NC(=O)[C@H](CC(C)C)NC(C)=O)C(=O)N[C@@H](CCCC)C(=O)N[C@@H](CCCN=C(N)N)C(=O)N[C@H](C(=O)N[C@@H](CCCCN)C(=O)N[C@@H](CCCN=C(N)N)C(N)=O)C(C)C (Ac-LL[Nle][Nle]RVKR-NH2) has pKi at least equal to 6.
Reply | Not met

Ask | I'd appreciate it if you could say whether CC(=O)N[C@H](CC(C)C)C(=O)N[C@H](CC(C)C)C(=O)N[C@H](CC(C)C)C(=O)N[C@H](CC(C)C)C(=O)N[C@@H](CCCNC(=N)N)C(=O)N[C@H](C(=O)N[C@@H](CCCCN)C(=O)N[C@@H](CCCNC(=N)N)C(N)=O)C(C)C has pKi at least equal to 6.
Reply | Not met

Ask | I'd appreciate it if you could say whether CC(=O)N[C@@H](CC(C)C)C(=O)N[C@H](CC(C)C)C(=O)N[C@@H](CC(C)C)C(=O)N[C@@H](CC(C)C)C(=O)N[C@@H](CCCN=C(N)N)C(=O)N[C@H](C(=O)N[C@@H](CCCCN)C(=O)N[C@@H](CCCN=C(N)N)C(N)=O)C(C)C has pKi at least equal to 6.
Reply | Not met

Ask | I'd appreciate it if you could say whether CCCC[C@H](NC(=O)[C@H](CC(C)C)NC(C)=O)C(=O)N[C@@H](CCCC)C(=O)N[C@@H](CC(C)C)C(=O)N[C@@H](CCCN=C(N)N)C(=O)N[C@H](C(=O)N[C@@H](CCCCN)C(=O)N[C@@H](CCCN=C(N)N)C(N)=O)C(C)C (Ac-L[Nle][Nle]LRVKR-NH2) has pKi at least equal to 6.
Reply | Not met

Ask | I'd appreciate it if you could say whether CC(=O)N[C@@H](CC(C)C)C(=O)N[C@@H](CC(C)C)C(=O)N[C@@H](CC(C)C)C(=O)N[C@@H](CC(C)C)C(=O)N[C@@H](CCCN=C(N)N)C(=O)N[C@H](C(=O)N[C@@H](CCCCN)C(=O)NCc1ccc(C(=N)N)cc1)C(C)C (Ac-LLLLRVK-{NH(4-amidinobenzyl)}) has pKi at least equal to 6.
Reply | Met

Ask | I'd appreciate it if you could say whether CC(=O)N[C@@H](CC(C)C)C(=O)N[C@@H](CC(C)C)C(=O)N[C@@H](CC(C)C)C(=O)N[C@H](CC(C)C)C(=O)N[C@@H](CCCNC(=N)N)C(=O)N[C@H](C(=O)N[C@@H](CCCCN)C(=O)N[C@@H](CCCNC(=N)N)C(N)=O)C(C)C has pKi at least equal to 6.
Reply | Not met
